TARGET_OF_ASSAY: T1, Mdm2 joined to HaloTag (UniProt Q00987 1-491, HaloTag covalently labelled with a cell permeable fluorogenic substrate)
T1 construct: Mdm2 of the p53:Mdm2 NanoBRET System (Promega); Construct of a bought kit (Promega); source: HEK293, transiently transfected, in live cells
METHOD: FRET or BRET; nanoBRET in live HEK293 cells transfected with p53-nanoLUC and Mdm2-HaloTag; stapled peptide titrated (10 points), 0% FCS, signal after 4 hours
PARTICULARS: one partner purified
Positions of bridges follow the written chain, without caps; N, C: chain ends. Non-standard residues stand in square brackets, D forms with d. R8 = C=CCCCCCC[C@@](C)(N)C(=O)O; S5 = C=CCCC[C@](C)(N)C(=O)O; Ahx = NCCCCCC(=O)O

>  <BINDER>
Ac-KK[Ahx]TSF[R8]EYWALL[S5]ENF-NH2 (staple 7-14) [VIP-82]

>  <IC50 (µM)>
3.9

$$$$
